biological target: T1, mouse EphA2 (Mouse, UniProt Q03145 26-538); test: FP direct binding, selectivity
T1 construct: extracellular domain; C-terminal polyHis; also called EphA2 (Ecto), Mouse
T1 sequence (Q03145 26-538): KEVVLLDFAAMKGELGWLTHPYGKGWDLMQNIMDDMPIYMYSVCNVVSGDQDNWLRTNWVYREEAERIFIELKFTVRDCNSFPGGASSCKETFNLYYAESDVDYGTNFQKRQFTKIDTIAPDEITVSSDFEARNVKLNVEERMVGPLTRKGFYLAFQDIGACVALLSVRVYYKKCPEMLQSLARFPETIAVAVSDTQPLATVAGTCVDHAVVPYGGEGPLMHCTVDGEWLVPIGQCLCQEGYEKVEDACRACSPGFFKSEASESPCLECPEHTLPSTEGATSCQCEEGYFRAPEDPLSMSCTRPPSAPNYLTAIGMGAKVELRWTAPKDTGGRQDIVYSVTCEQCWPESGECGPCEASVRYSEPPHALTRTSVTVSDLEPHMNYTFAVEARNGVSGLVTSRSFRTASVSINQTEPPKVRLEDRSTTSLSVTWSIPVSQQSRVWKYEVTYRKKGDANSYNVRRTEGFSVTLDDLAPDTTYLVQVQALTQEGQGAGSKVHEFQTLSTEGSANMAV
Numbered stars: 1 amine (or outer) side, 2 acyl side, 3 side chain; on linkers, the order of the positions; unused ones are H or OH. Bridge positions count the residues as written; N and C are the ends. Square brackets hold non-standard residues; d marks the D form. Primed or numbered codes have the meaning given here. Ends that are not written are not given here. K(Fl)″ = lysine labelled with carboxyfluorescein; TBMB = c1c(C[*:1])cc(C[*:3])cc1C[*:2]; AF488 = AlexaFluor488 label; βAla = NCCC(=O)O; Sar = CNCC(=O)O
recorded endpoint: pKd
// pKd is dimensionless: -log10 of concentration (M)

binder	pKd
ACLVNDDCFYMGLCA[Sar][Sar][Sar][Sar][Sar][Sar]-{K(Fl)″} (linker 2-8-14 via TBMB, bicyclic peptide, fluorescent) [Compound 23]	6.41

Here is the next item to consider.
Requested read-out: pKd. Entry: {AF488-βAla}-[Sar][Sar][Sar][Sar][Sar][Sar][Sar][Sar][Sar][Sar]H[dD]VPCPWGPFWCPVNRPGCA (linker 15-22-29 via TBMB, bicyclic peptide, fluorescent) [Compound 139]
9.10
